# method_description: Pharmacokinetics of sirolimus in blood (LC/MS/MS, non-compartmental)
# Assay type: in vivo, patients
# run_conditions: human, whole blood, im, 1 mg, DL IM, sor 400 mg b.i.d., sir 1 mg q.d.; cycle 1 day 1, single-dose sir; geometric mean (95% CI), n=3; read-out: AUC(0–96 h)
measured_property: AUC(0-t) (ng·h/mL)
I only need the number, in ng·h/mL, no unit after it.

Input: Name the recorded AUC(0-t) of the compound listed here: CO[C@H]1C[C@@H]2CC[C@@H](C)[C@@](O)(O2)C(=O)C(=O)N2CCCC[C@H]2C(=O)O[C@H]([C@H](C)C[C@@H]2CC[C@@H](O)[C@H](OC)C2)CC(=O)[C@H](C)/C=C(\C)[C@@H](O)[C@@H](OC)C(=O)[C@H](C)C[C@H](C)/C=C/C=C/C=C/1C
Output: 139
